Target: T1, A Proliferation Inducing Ligand (APRIL) (human, UniProt O75888 105-250)
T1 sequence: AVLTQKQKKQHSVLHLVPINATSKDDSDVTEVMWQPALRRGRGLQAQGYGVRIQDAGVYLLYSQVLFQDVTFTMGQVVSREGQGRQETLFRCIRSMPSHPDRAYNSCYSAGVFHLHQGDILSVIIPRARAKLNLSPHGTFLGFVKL
Test: cell binding titration by flow cytometry; soluble APRIL varied to 10 nM on cells displaying the BCMA clone
assay.readout: Kd (nM)

binder	Kd [nM]
BCMA#72 (receptor, also called Clone #72; sBCMA variant clone 72) variant BCMA extracellular domain: MLQMAGQCSQNEYFDGLLYACIPCQLRCSSNTPPLACQRYCNASVTNSVKGTNA	0.018

(1) BCMA#73 (receptor, also called Clone #73; clone #22) variant BCMA extracellular domain: MLQMAGQCSQNEYFDGLLHACIPCQLRCSSNTPPLACQRYCNASVTNSVKGTNA
(2) BCMA#106 (receptor, also called Clone #106; clones #106-111) variant BCMA extracellular domain: VSQTAGQCSQNEYFDGLLHACIPCQLRCSSDIPPLACQRYCNASVTNSVKGTNA
(3) BCMA#71 (receptor, also called Clone #71; sBCMA variant clone 71) variant BCMA extracellular domain: MLQMAGQCSQNEYFDGLLYACIPCQLRCSSNTPPLACQRYCNASVTNSVKGTDA
Arrange these 3 binders in increasing order of Kd. Please list the labels in the order you were asked to rank them.
3, 2, 1
